- Species: Rattus norvegicus
- Run Description: DrugMatrix - Regimen: Daily Repeat
- Type: toxicity, organism-based, Sprague-Dawley
- Parameters: regimen Daily Repeat, gender Male, age 6-8 weeks
- Measurement Parameters: in vivo, po, 15 mg/kg, […], tissue Blood, route oral GAVAGE, dose level High, time 14 day
Reported Metric: ABSOLUTE EOSINOPHIL (cells/µL)
Please respond with the number in cells/µL and leave the unit unwritten.

Prompt: Dear colleague, please send me the reported ABSOLUTE EOSINOPHIL for CC(CCc1ccc(O)cc1)NCCc1ccc(O)c(O)c1 (stereo unspecified) when you can.
Response: 40

---

- Organism: Rattus norvegicus
- Run Description: DrugMatrix - Regimen: Daily Repeat
- Type: toxicity, organism-based, Sprague-Dawley
- Parameters: regimen Daily Repeat, gender Male, age 6-8 weeks
- Measurement Parameters: in vivo, ip, 0 mg/kg, […], tissue Blood, route intraperitoneal, dose level Control, time 14 day, vehicle 100 % SALINE
Reported Metric: ABSOLUTE EOSINOPHIL (cells/µL)
The reply should contain only the number, in cells/µL.

Prompt: Using known records, supply ABSOLUTE EOSINOPHIL for NC[C@H]1O[C@H](O[C@H]2[C@H](O)[C@@H](O[C@H]3O[C@H](CO)[C@@H](O)[C@H](N)[C@H]3O)[C@H](N)C[C@@H]2N)[C@H](N)C[C@@H]1O [TOBRAMYCIN]
Response: 140

---

- Species on record: Rattus norvegicus
- Run Description: DrugMatrix - Regimen: Daily Repeat
- Type: toxicity, organism-based, Sprague-Dawley
- Set-up: regimen Daily Repeat, gender Male, age 6-8 weeks
- Measurement Parameters: in vivo, po, 0 mg/kg, 72 h, tissue Plasma, route oral GAVAGE, dose level Control, time 3 day, […]
Reported Metric: ALBUMIN
# include the unit after the value

Observe how each entry below is paired with its result.
Prompt: Supply ALBUMIN value. Item: NC[C@@H]1O[C@H](O[C@H]2[C@@H](O)[C@H](O[C@@H]3[C@@H](O)[C@H](N)C[C@H](N)[C@H]3O[C@H]3O[C@H](CN)[C@@H](O)[C@H](O)[C@H]3N)O[C@@H]2CO)[C@H](N)[C@@H](O)[C@@H]1O [FRAMYCETIN]
Response: 3.93 G/DL

Prompt: Supply ALBUMIN value. Item: C#C[C@]1(O)CC[C@H]2[C@@H]3CCc4cc(O)ccc4[C@H]3CC[C@@]21C [ETHINYL ESTRADIOL]
Response: 3.97 G/DL

Now for a further compound.
Prompt: Consider the compound COc1ncnc(NS(=O)(=O)c2ccc(N)cc2)c1OC [SULFADOXINE] and give its recorded ALBUMIN.
Response: 4 G/DL

---

- Species: Rattus norvegicus
- Run Description: DrugMatrix - Regimen: Daily Repeat
- Assay type: toxicity, organism-based, Sprague-Dawley
- Set-up: regimen Daily Repeat, gender Male, age 6-8 weeks
- Measurement Parameters: in vivo, po, 0 mg/kg, 120 h, tissue Plasma, route oral GAVAGE, dose level Control, time 5 day, vehicle .5 % CMC
Note to self: values exactly at 40 u/L are label 1. So ALANINE AMINOTRANSFERASE at or above 40 u/L is label 1, below is label 0.

Examples from the recorded data:
Prompt: Is it the case that Cc1cnc(C(=O)NCCc2ccc(S(=O)(=O)NC(=O)NC3CCCCC3)cc2)cn1 [GLIPIZIDE] has ALANINE AMINOTRANSFERASE reaching or exceeding 40 u/L?
Response: label 1

Prompt: # check: ALANINE AMINOTRANSFERASE of CO[C@H]1C[C@@H]2CC[C@@H](C)[C@@](O)(O2)C(=O)C(=O)N2CCCC[C@H]2C(=O)O[C@H]([C@H](C)C[C@@H]2CC[C@@H](O)[C@H](OC)C2)CC(=O)[C@H](C)/C=C(\C)[C@@H](O)[C@@H](OC)C(=O)[C@H](C)C[C@H](C)/C=C/C=C/C=C/1C is greater than or equal to 40 u/L
Response: label 1

Prompt: Kindly determine if ALANINE AMINOTRANSFERASE recorded for COc1ccc(/C=C/C(=O)Nc2ccccc2C(=O)O)cc1OC is above or exactly 40 u/L.
Response: label 1

Prompt: Would you say CCOC(=O)[C@H](CCc1ccccc1)N[C@@H](C)C(=O)N1Cc2ccccc2C[C@H]1C(=O)O shows ALANINE AMINOTRANSFERASE at minimum 40 u/L?
Response: label 1

Prompt: Kindly determine if ALANINE AMINOTRANSFERASE recorded for Nc1cccc(Cl)c1 is above or exactly 40 u/L.
Response: label 0

Prompt: Decide: is the reported value of ALANINE AMINOTRANSFERASE for CN1C(=O)CN=C(c2ccccc2)c2cc(Cl)ccc21 equal to or greater than 40 u/L?
Response: label 1

Prompt: API: above_or_equal(metric=ALANINE AMINOTRANSFERASE, cutoff=40 u/L) for item C=C(CC)C(=O)c1ccc(OCC(=O)O)c(Cl)c1Cl
Response: label 0

Now examine the next entry.
Prompt: Threshold query (ALANINE AMINOTRANSFERASE >= 40 u/L) on C[C@]12C/C(=C/O)C(=O)C[C@@H]1CC[C@@H]1[C@@H]2CC[C@@]2(C)[C@H]1CC[C@]2(C)O
Response: label 0

---

- Species: Rattus norvegicus
- Run Description: DrugMatrix - Regimen: Daily Repeat
- Type: toxicity, organism-based, Sprague-Dawley
- Set-up: regimen Daily Repeat, gender Male, age 6-8 weeks
- Measurement Parameters: in vivo, po, 80 mg/kg, 2184 h, tissue Blood, route oral GAVAGE, dose level Low, time 91 day, vehicle .5 % CMC
Reported Metric: ABSOLUTE BASOPHIL (cells/µL)
# unit: cells/µL | format: bare number

Prompt: State, in one line, measured ABSOLUTE BASOPHIL of O=c1cc(-c2ccccc2)oc2ccc3ccccc3c12
Response: 410

---

- Species: Rattus norvegicus
- Run Description: DrugMatrix - Regimen: Daily Repeat
- Assay type: toxicity, organism-based, Sprague-Dawley
- Design: regimen Daily Repeat, gender Male, age 6-8 weeks
- Measurement Parameters: in vivo, ip, 0 mg/kg, […], tissue Blood, route intraperitoneal, dose level Control, time 14 day, vehicle 100 % SALINE
Reported Metric: ABSOLUTE SEGMENTED NEUTROPHIL
Remember to put the unit after the number in your answer.

Prompt: Tell me ABSOLUTE SEGMENTED NEUTROPHIL reported for NC[C@H]1O[C@H](O[C@H]2[C@H](O)[C@@H](O[C@H]3O[C@H](CO)[C@@H](O)[C@H](N)[C@H]3O)[C@H](N)C[C@@H]2N)[C@H](N)C[C@@H]1O [TOBRAMYCIN]
Response: 2330 cells/µL

---

Here the recorded NUCLEATED RED BLOOD CELLS is given for each entry.
- Species on record: Rattus norvegicus
- Run Description: DrugMatrix - Regimen: Daily Repeat
- Format: toxicity, organism-based, Sprague-Dawley
- Design: regimen Daily Repeat, gender Male, age 6-8 weeks
- Measurement Parameters: in vivo, po, 1500 mg/kg, 72 h, tissue Blood, route oral GAVAGE, dose level High, time 3 day, vehicle .5 % CMC

Known NUCLEATED RED BLOOD CELLS results, listed for orientation:
Prompt: For C[C@@H](O)[C@H]1C(=O)N2C(C(=O)O)=C(S[C@@H]3CN[C@H](C(=O)N(C)C)C3)[C@H](C)[C@H]12 , write its NUCLEATED RED BLOOD CELLS.
Response: 0 /100WBC

Prompt: Dear colleague, please send me the reported NUCLEATED RED BLOOD CELLS for Nc1nc2c(c(=O)[nH]1)N(C=O)C(CNc1ccc(C(=O)N[C@@H](CCC(=O)O)C(=O)O)cc1)CN2 (some centres undefined) when you can.
Response: 0 /100WBC

***
Prompt: Read off the recorded NUCLEATED RED BLOOD CELLS for CC(C)(Sc1cc(C(C)(C)C)c(O)c(C(C)(C)C)c1)Sc1cc(C(C)(C)C)c(O)c(C(C)(C)C)c1
Response: 0 /100WBC

Prompt: Indicate its recorded NUCLEATED RED BLOOD CELLS; the compound in question is CCOC(=O)[C@H](CCc1ccccc1)N[C@@H](C)C(=O)N1CCC[C@H]1C(=O)O
Response: 1 /100WBC

---

- Species: Rattus norvegicus
- Run Description: DrugMatrix - Regimen: Daily Repeat
- Assay type: toxicity, organism-based, Sprague-Dawley
- Design: regimen Daily Repeat, gender Male, age 6-8 weeks
- Measurement Parameters: in vivo, ip, 0 mg/kg, […], tissue Blood, route intraperitoneal, dose level Control, time 28 day, vehicle 100 % SALINE
Reported Metric: ABSOLUTE EOSINOPHIL (cells/µL)
Write it as a number; the unit cells/µL goes unstated.

Prompt: Give recorded ABSOLUTE EOSINOPHIL. NC[C@H]1O[C@H](O[C@H]2[C@H](O)[C@@H](O[C@H]3O[C@H](CO)[C@@H](O)[C@H](N)[C@H]3O)[C@H](N)C[C@@H]2N)[C@H](N)C[C@@H]1O
Response: 110
